// data source = patent US4305954A

System: adjuvant-induced arthritis in rats
Assay: Established adjuvant-induced arthritis in rats
Format: in vivo, rat (Charles River Lewis male rats)
Details: Rattus norvegicus, 24 h; oral by gavage, 7 daily doses; ED50% decrease from control paw volume (uninjected left hind paw), read one day after last dose; read-out: Adjuvant Arthritis ED50
measured quantity: log10(ED50) (log10 of the value in mg/kg)

# compound, log10(ED50)
rows = [
    ("CCCCC1C(=O)N(c2ccccc2)N(c2ccccc2)C1=O [Phenylbutazone, phenylbutazone, reference compound]", 1.00),
    ("Fc1ccc2c(c1)OCc1[nH]c(SC(F)(F)C(F)F)nc1-2 [Example 5]", 1.70),
    ("FC(F)C(F)(F)Sc1nc2c([nH]1)COc1cc(Cl)c(Cl)cc1-2 [Example 1]", 0.91),
    ("O=S(=O)(c1nc2c([nH]1)COc1cc(Cl)c(Cl)cc1-2)C(F)(F)C(F)F [Example 2]", 0.49),
    ("CC(C)Cc1ccc(C(C)C(=O)O)cc1 (stereo not shown) [Ibuprofen, ibuprofen, reference compound]", 2.00),
]
